Source: patent US9340577B2

Target: DRB1*1101 (Homo sapiens, UniProt P01903+P01911, A100R/A169T/A87E/I96F/K41T/L162R/M171V/P40S/Q125H/Q178H/Q39Y/Q99D/R42S/S66Y/T262R/V115G/W38E)
Sequence (P01903 26-254 limits assumed, other chains not shown): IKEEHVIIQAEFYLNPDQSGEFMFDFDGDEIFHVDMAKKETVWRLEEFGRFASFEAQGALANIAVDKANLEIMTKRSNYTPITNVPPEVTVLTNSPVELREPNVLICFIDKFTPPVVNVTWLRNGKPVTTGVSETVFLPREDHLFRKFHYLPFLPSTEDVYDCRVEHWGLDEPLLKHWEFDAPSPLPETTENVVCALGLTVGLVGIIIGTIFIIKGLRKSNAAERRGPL
Assay: biochemical
Details: Binding affinity DRB1 *1101
No end group written: not given here.
Values of IC50 strictly less than 3000 nM map to YES, and values of at least 3000 nM map to NO.

Previously resolved entries follow.
LKRFLQGIPKKNCIL [Peptide 89.0016] ... YES
ACSWGMVMLMLVRFK [Peptide 89.0043] ... YES
GKSYFGMSLIHFLKG [Peptide 89.0146] ... NO

Now for a further sequence.
Inquiry: Quick check: does ILLYGAANTGKSLFG [Peptide 89.0018] have IC50 under 3000 nM?
Reply text: YES

====

Each record here notes measured pIC50.
Biological target: DRB1*0802 (Homo sapiens, UniProt P01903+P01911, A100R/A103L/A169T/F76Y/H45Y/I96F/K41T/L162R/M171V/P40S/Q125H/Q178H/Q39Y/Q99D/R218S/R42G/S66Y/V115G/W38E)
Assay: biochemical
Assay type: binding
pIC50: −log10 of the molar value. No end group written: not given here.

FIHFLQGAIISFVNS [Peptide 89.0088] ... < 4.70

Inquiry: Record request: pIC50 value, item CWNYIDDNLRNALDG [Peptide 90.0041]
Reply text: < 4.70

Inquiry: Record request: pIC50 value, item ALSVSKAKALQAIEL [Peptide 89.0170]
Reply text: < 4.70

Inquiry: Record request: pIC50 value, item FQVIELQMALETLNA [Peptide 90.0025]
Reply text: < 4.70

====

Molecular target: HLA-A1 (A*0101) (Homo sapiens, UniProt P04439, A114D/A174V/A182V/D101N/D185E/E176A/E190D/L180R/Q94H/R68K/S129P/T187R/V100A/V91M/W191G)
Assay: biochemical
Format: binding
No end group written: not given here.
TEST_READOUT: IC50 (nM)
Kindly provide the numeric value in nM only, without the unit symbol.

SMDNPEGRY [Peptide 9012.0122] ... 141

Inquiry: Record request: IC50 value, item DSVSSTCRY [Peptide 86.0156]
Reply text: 3060

Inquiry: Record request: IC50 value, item ASDVTACPYNY [Peptide 9012.0176]
Reply text: 18

Inquiry: Record request: IC50 value, item FSITNWLWY [Peptide 9015.0008]
Reply text: 74

Inquiry: Record request: IC50 value, item ITDNNNGTY [Peptide 9012.0120]
Reply text: 32

Inquiry: Record request: IC50 value, item MLETLNNTEY [Peptide 1580.24]
Reply text: 36

Inquiry: Record request: IC50 value, item NTLVKHHMY [Peptide 9018.0009]
Reply text: 363

Inquiry: Record request: IC50 value, item LTDKILDHY [Peptide 1593.16]
Reply text: 3.1

Inquiry: Record request: IC50 value, item LSEMVQWAY [Peptide 1580.10]
Reply text: 6.9

Inquiry: Record request: IC50 value, item HTARELHPEY [Peptide 9018.0004]
Reply text: 8

====

Target: A*0202 (Homo sapiens, UniProt P04439, D140Y/D185E/D98H/E176V/E277Q/G131W/G231S/I119L/I121R/I166T/I218V/L180W/L300P/L318F/N151K/N90K/P208A/P217A/Q67R/Q86G/Q94H/R138H/R169H/T345S)
Test: biochemical
Assay type: binding
No end group written: not given here.
TEST_READOUT: IC50 (nM)
Kindly provide the numeric value in nM only, without the unit symbol.

IIQNDTGFYV [Peptide 9013.0146] ... 25
QLSTQELFI [Peptide 9013.0057] ... 4.5
LLLSNGNRTL [Peptide 9013.0227] ... 158
RLLTLLSVT [Peptide 9013.0076] ... 4610
TVQDVSLEV [Peptide 1593.55] ... 483
ILYPNASLLI [Peptide 9013.0145] ... 1.3
TLNNSGSYT [Peptide 9013.0065] ... 237
KLLSKLLCV [Peptide 1578.03] ... 68

Inquiry: Record request: IC50 value, item VLEGKEVLL [Peptide 9013.0019]
Reply text: 18

Inquiry: Record request: IC50 value, item TLKLTIEST [Peptide 9013.0010]
Reply text: 80

Inquiry: Record request: IC50 value, item LLLTASLLV [Peptide 9013.0002]
Reply text: 1330

Inquiry: Record request: IC50 value, item FLQGAIISFV [Peptide 1578.27]
Reply text: 0.65

Inquiry: Record request: IC50 value, item RTTVKTITVSV [Peptide 9013.0318]
Reply text: 866
